Source listed as ChEMBL document CHEMBL1125188.

Tested on: MCF7
PROCEDURE SUMMARY: Cytotoxic concentration required to inhibit 50% cell growth in MCF-7 breast carcinoma cell lines
Assay type: functional
CONDITION NOTES: Homo sapiens, read-out: ED50 (the source's name)
Hi there, I'd appreciate the recorded pEC50 for every entry that follows.
Keep in mind that pEC50 stands for -log10 of concentration in molar terms.

Provide measured pEC50 value, entry: COc1ccccc1/C=C\c1cc(OC)c(OC)c(OC)c1
5.89

Provide only the value of recorded pEC50 for COc1cccc(CCc2cc(OC)c(OC)c(OC)c2)c1
4.91

Entry COc1cccc2c1C(=O)c1c(O)c3c(c(O)c1C2=O)C[C@@](O)(C(=O)CO)C[C@@H]3O[C@H]1C[C@H](N)[C@H](O)[C@H](C)O1 [DOXORUBICIN] needs its pEC50 filled in; supply it.
7.51

Identify the reported pEC50 for the following entry. COc1ccc(NCc2cc(OC)c(OC)c(OC)c2)cc1
8.62

Please report pEC50 for the following compound: COc1cc(/C=C\c2ccc(O)cc2)cc(OC)c1OC
5.24
